# measured-on: Alpha-1D adrenergic receptor (Homo sapiens, UniProt P25100)
# Sequence (P25100 whole entry): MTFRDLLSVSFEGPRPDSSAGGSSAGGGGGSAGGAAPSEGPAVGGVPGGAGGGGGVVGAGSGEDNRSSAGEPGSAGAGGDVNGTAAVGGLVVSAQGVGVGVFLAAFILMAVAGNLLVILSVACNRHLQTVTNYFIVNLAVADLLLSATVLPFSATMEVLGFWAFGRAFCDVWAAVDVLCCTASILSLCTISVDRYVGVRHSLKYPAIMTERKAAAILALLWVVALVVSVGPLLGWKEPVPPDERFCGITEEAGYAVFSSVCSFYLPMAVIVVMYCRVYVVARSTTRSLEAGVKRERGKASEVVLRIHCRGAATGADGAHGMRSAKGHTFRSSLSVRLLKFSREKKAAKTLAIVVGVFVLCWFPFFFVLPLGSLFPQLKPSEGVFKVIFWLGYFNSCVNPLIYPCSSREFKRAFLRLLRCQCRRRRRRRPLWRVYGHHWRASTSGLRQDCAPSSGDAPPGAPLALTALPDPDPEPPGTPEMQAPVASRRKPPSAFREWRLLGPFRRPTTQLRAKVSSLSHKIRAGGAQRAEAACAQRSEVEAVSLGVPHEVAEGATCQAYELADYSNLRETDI
# protocol: Inhibition of [3H]prazosin binding to CHO-K1 whole cells expressing human cloned Alpha-1D adrenergic receptor
Mark 1 (yes) only when Ki stays strictly below 50 nM. Values equal to the cut-off are 0 (no).

Some solved cases for reference:
| molecule-smiles | label |
| --- | --- |
| Cc1cn(CCCN2CCN(c3ccccc3OCC(F)(F)F)CC2)c(=O)[nH]c1=O | 1 (yes) |
| COc1c[nH]c(=O)n(CCCN2CCN(c3ccc(F)cc3OCC(F)(F)F)CC2)c1=O | 1 (yes) |
| Cc1c[nH]c(=O)n(CCCN2CCN(c3ccccc3OCC(F)(F)F)CC2)c1=O | 1 (yes) |
| Cc1c[nH]c(=O)n(CC(C)(C)CN2CCN(c3ccccc3OCC(F)(F)F)CC2)c1=O | 0 (no) |
| O=c1[nH]c2ccccc2c(=O)n1CCCN1CCN(c2ccccc2OCC(F)(F)F)CC1 | 1 (yes) |

Task: Quick check: does "Cc1c[nH]c(=O)n(CCN2CCN(c3ccc(F)cc3OCC(F)(F)F)CC2)c1=O" have Ki under 50 nM?
Output: 1 (yes)

Task: Quick check: does "CN(C)c1c[nH]c(=O)n(CCCN2CCN(c3ccc(F)cc3OCC(F)(F)F)CC2)c1=O" have Ki under 50 nM?
Output: 0 (no)

Task: Quick check: does "Cc1c[nH]c(=O)n(CCCN2CCN(c3ccc(F)cc3OCC(F)(F)F)CC2)c1=O" have Ki under 50 nM?
Output: 0 (no)

Task: Quick check: does "C[C@]1(O)C(=O)N(CCCN2CCN(c3ccc(F)cc3OCC(F)(F)F)CC2)C(=O)N[C@H]1O" have Ki under 50 nM?
Output: 0 (no)

Task: Quick check: does "Cc1n[nH]c(=O)n(CCCN2CCN(c3ccccc3OCC(F)(F)F)CC2)c1=O" have Ki under 50 nM?
Output: 1 (yes)

----------
Assign clearance to each entry below.
# protocol: Plasma clearance by iv administration in dog at a dose of 0.3 mg/kg
# Type: ADME, organism-based, Canis lupus familiaris
# Design: dose 0.3 mg/kg, route intravenous
Give bare numbers, in mL/min/kg.

| molecule-smiles | units-text | clearance |
| --- | --- | --- |
| Cc1c[nH]c(=O)n(CCCN2CCN(c3ccc(F)cc3OCC(F)(F)F)CC2)c1=O | mL/min/kg | 4.33 |

Task: Could you please provide reported clearance for "C[C@]1(O)C(=O)N(CCCN2CCN(c3ccc(F)cc3OCC(F)(F)F)CC2)C(=O)N[C@H]1O" ? Thanks!
Output: 4.17
